Origin of measurements: patent US7932262B2

Test system: A2780 cells
Assay: Cell Proliferation Assay (Cell Titer Glo), A2780
Assay type: cell-based
Settings: Homo sapiens; Cell Proliferation Assay, A2780; read-out: CPEC50 A2780
pEC50: −log10 of the molar value.
Measured Quantity: pEC50

Examples with their reported pEC50 follow.
- Sample Smiles: "COc1cccc(Oc2cccc3cnc(Nc4ccc(S(N)(=O)=O)cc4)nc23)c1"
  pEC50: "> 5.30"
- Sample Smiles: "CC(C)COc1cccc2cnc(Nc3ccc(S(N)(=O)=O)cc3)nc12"
  pEC50: "> 5.30"
- Sample Smiles: "CS(=O)(=O)CCNC(=O)c1cccc2cnc(Nc3ccc(S(N)(=O)=O)cc3)nc12"
  pEC50: "5.00 to 5.30"

Query: Identify the measured pEC50 of `NS(=O)(=O)c1ccc(Nc2ncc3cccc(OCCN4CCOCC4)c3n2)cc1` for A2780 cells.
Result: > 5.30
